In this section we review reported inhibition values for a set of compounds.
biological target: Coagulation factor XI (Homo sapiens) (UniProt P03951); assay: human FXIa protease inhibitors, primary screen, biochemical, single compound per well (AID 687); conditions: purified human FXIa, fluorogenic AMC substrate cleavage; at 10 µM; hits give high values;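 note: 0% = enzyme without compound and 100% = blank wells lacking enzyme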
Sequence (P03951 19-387 limits assumed): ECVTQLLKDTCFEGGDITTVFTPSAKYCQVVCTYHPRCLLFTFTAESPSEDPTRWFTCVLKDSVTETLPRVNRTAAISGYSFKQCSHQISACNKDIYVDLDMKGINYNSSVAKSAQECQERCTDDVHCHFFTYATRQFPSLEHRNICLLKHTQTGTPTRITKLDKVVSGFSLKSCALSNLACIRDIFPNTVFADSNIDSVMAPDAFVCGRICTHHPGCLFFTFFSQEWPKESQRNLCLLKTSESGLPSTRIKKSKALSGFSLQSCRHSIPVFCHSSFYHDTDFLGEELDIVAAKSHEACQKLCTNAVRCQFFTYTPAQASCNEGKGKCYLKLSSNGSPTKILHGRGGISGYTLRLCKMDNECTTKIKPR
Sequence (P03951 388-625 limits assumed): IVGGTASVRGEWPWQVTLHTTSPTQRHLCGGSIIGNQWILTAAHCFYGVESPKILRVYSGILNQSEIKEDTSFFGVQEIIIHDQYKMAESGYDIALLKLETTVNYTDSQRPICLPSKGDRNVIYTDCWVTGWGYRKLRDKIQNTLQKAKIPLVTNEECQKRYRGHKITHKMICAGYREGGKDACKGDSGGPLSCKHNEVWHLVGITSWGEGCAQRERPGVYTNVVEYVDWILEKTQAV
The whole screen tested about 33,000 compounds, of which about 95 (0.3%) were called active. The sample as a whole holds a higher share of actives than the screen did.
Output spec: scalar in %, unitless text.

[[record]]
compound = "COc1ccc(N(CC(=O)NC2CCCCC2)S(=O)(=O)c2c(C)[nH]c(=O)[nH]c2=O)cc1"
value_unit = "%"
observed_measurement = 8.86

[[record]]
compound = "CCOc1ccc(S(=O)(=O)N2CCCCCC2)c2ccccc12"
value_unit = "%"
observed_measurement = -9.47


**Q:** Consider the compound CCOC(=O)C1=C(C)NC2=C(C(=O)CC(C)(C)C2)C1c1ccsc1 (stereo not given) and give its recorded inhibition.
**A:** 1.22

**Q:** Consider the compound C=CCC(NCc1ccco1)c1ccc(OC)cc1 (stereo not given) and give its recorded inhibition.
**A:** 4.05

**Q:** Consider the compound "CCOCc1nnc(NC(=O)CSc2ccc(C)cc2)s1" and give its recorded inhibition.
**A:** -2.27
